System: 876862-298-R-J1-PDC complex spheroids, viability % test/control;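 also: spheroids exposed to drugs for 7 days before readout; 100% = DMSO vehicle control wells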
assay: Anticancer human tumor 876862-298-R-J1-PDC patient-derived endometrial carcinoma cell line growth inhibition [CLK]
run.parameters: second compound 1 µM; first compound 3.16 µM; hits give low values

molecule	measurement.target	unit.text	viability, T/C
COC1C=CCC(C)C(C)S(=O)(=O)NC(=O)c2ccc3c(c2)N(CC2CCC21)CC1(CCCc2cc(Cl)ccc21)CO3 (stereo not given) + CN1CCN(c2cc(C(=O)Nc3cc4cc(-c5cnn(C)c5)ccc4cn3)ccn2)CC1	876862-298-R-J1-PDC complex spheroids, viability % test/control	%	25.2
C#Cc1c(F)ccc2cc(O)cc(-c3ncc4c(N5CC6CCC(C5)N6)nc(OCC56CCCN5CC(F)C6)nc4c3F)c12 (stereo not given) + CN1CCN(c2cc(C(=O)Nc3cc4cc(-c5cnn(C)c5)ccc4cn3)ccn2)CC1	876862-298-R-J1-PDC complex spheroids, viability % test/control	%	1.86
COc1ccc([C@@H](O)c2cc(-c3ncnc4cc(N5CCOCC5)ccc34)c(F)cc2Cl)nn1 + CNC(=O)c1ccc(Nc2nc(OC3CCCC3)c3c(-c4ccc5nc(C)oc5c4)c[nH]c3n2)c(OC)c1	876862-298-R-J1-PDC complex spheroids, viability % test/control	%	21.1
C=CC(=O)N1CCN(c2nc(=O)n(-c3c(C)ccnc3C(C)C)c3nc(-c4c(O)cccc4F)c(F)cc23)C(C)C1 (stereo not given) + CNC(=O)c1ccc(Nc2nc(OC3CCCC3)c3c(-c4ccc5nc(C)oc5c4)c[nH]c3n2)c(OC)c1	876862-298-R-J1-PDC complex spheroids, viability % test/control	%	29.3
C=CC(=O)N1CCN(c2nc(=O)n(-c3c(C)ccnc3C(C)C)c3nc(-c4c(O)cccc4F)c(F)cc23)C(C)C1 (stereo not given) + CN1CCN(c2cc(C(=O)Nc3cc4cc(-c5cnn(C)c5)ccc4cn3)ccn2)CC1	876862-298-R-J1-PDC complex spheroids, viability % test/control	%	4.17
Nc1ccccc1NC(=O)c1ccc(CNC(=O)OCc2cccnc2)cc1 + CNC(=O)c1ccc(Nc2nc(OC3CCCC3)c3c(-c4ccc5nc(C)oc5c4)c[nH]c3n2)c(OC)c1	876862-298-R-J1-PDC complex spheroids, viability % test/control	%	15.7
Nc1ccn(C2OC(CO)C(O)C2(F)F)c(=O)n1 (stereo not given) + CNC(=O)c1ccc(Nc2nc(OC3CCCC3)c3c(-c4ccc5nc(C)oc5c4)c[nH]c3n2)c(OC)c1	876862-298-R-J1-PDC complex spheroids, viability % test/control	%	6.8
Nc1ccccc1NC(=O)c1ccc(CNC(=O)OCc2cccnc2)cc1 + CN1CCN(c2cc(C(=O)Nc3cc4cc(-c5cnn(C)c5)ccc4cn3)ccn2)CC1	876862-298-R-J1-PDC complex spheroids, viability % test/control	%	1.68
C=C(F)C(=O)N1CCN(c2nc(OCC3CCCN3C)nc3c2CCN(c2cccc4cccc(Cl)c24)C3)CC1CC#N (stereo not given) + CNC(=O)c1ccc(Nc2nc(OC3CCCC3)c3c(-c4ccc5nc(C)oc5c4)c[nH]c3n2)c(OC)c1	876862-298-R-J1-PDC complex spheroids, viability % test/control	%	27.6
O=c1[nH]cc(F)c(=O)[nH]1 + CN1CCN(c2cc(C(=O)Nc3cc4cc(-c5cnn(C)c5)ccc4cn3)ccn2)CC1	876862-298-R-J1-PDC complex spheroids, viability % test/control	%	0.68
C=C(F)C(=O)N1CCN(c2nc(OCC3CCCN3C)nc3c2CCN(c2cccc4cccc(Cl)c24)C3)CC1CC#N (stereo not given) + CN1CCN(c2cc(C(=O)Nc3cc4cc(-c5cnn(C)c5)ccc4cn3)ccn2)CC1	876862-298-R-J1-PDC complex spheroids, viability % test/control	%	1.43
CCCS(=O)(=O)Nc1ccc(F)c(C(=O)c2c[nH]c3ncc(-c4ccc(Cl)cc4)cc23)c1F + CNC(=O)c1ccc(Nc2nc(OC3CCCC3)c3c(-c4ccc5nc(C)oc5c4)c[nH]c3n2)c(OC)c1	876862-298-R-J1-PDC complex spheroids, viability % test/control	%	22.4
O=C(c1cc(Cc2n[nH]c(=O)c3ccccc23)ccc1F)N1CCN(C(=O)C2CC2)CC1 + CNC(=O)c1ccc(Nc2nc(OC3CCCC3)c3c(-c4ccc5nc(C)oc5c4)c[nH]c3n2)c(OC)c1	876862-298-R-J1-PDC complex spheroids, viability % test/control	%	31.3
CC(Nc1ccc2c(c1)OCCn1cc(N3C(=O)OCC3C(F)F)nc1-2)C(N)=O (stereo not given) + CNC(=O)c1ccc(Nc2nc(OC3CCCC3)c3c(-c4ccc5nc(C)oc5c4)c[nH]c3n2)c(OC)c1	876862-298-R-J1-PDC complex spheroids, viability % test/control	%	17.1
CC(=O)O[C@H]1C(=O)[C@@]2(C)[C@H]([C@H](OC(=O)c3ccccc3)[C@]3(O)C[C@H](OC(=O)[C@H](O)[C@@H](NC(=O)c4ccccc4)c4ccccc4)C(C)=C1C3(C)C)[C@]1(OC(C)=O)CO[C@@H]1C[C@@H]2O + CN1CCN(c2cc(C(=O)Nc3cc4cc(-c5cnn(C)c5)ccc4cn3)ccn2)CC1	876862-298-R-J1-PDC complex spheroids, viability % test/control	%	0.84
O=c1[nH]cc(F)c(=O)[nH]1 + CNC(=O)c1ccc(Nc2nc(OC3CCCC3)c3c(-c4ccc5nc(C)oc5c4)c[nH]c3n2)c(OC)c1	876862-298-R-J1-PDC complex spheroids, viability % test/control	%	24
Nc1ccn(C2OC(CO)C(O)C2(F)F)c(=O)n1 (stereo not given) + CN1CCN(c2cc(C(=O)Nc3cc4cc(-c5cnn(C)c5)ccc4cn3)ccn2)CC1	876862-298-R-J1-PDC complex spheroids, viability % test/control	%	0.79
CC1(C)CCC(CN2CCN(c3ccc(C(=O)NS(=O)(=O)c4ccc(NCC5CCOCC5)c([N+](=O)[O-])c4)c(Oc4cnc5[nH]ccc5c4)c3)CC2)=C(c2ccc(Cl)cc2)C1 + CN1CCN(c2cc(C(=O)Nc3cc4cc(-c5cnn(C)c5)ccc4cn3)ccn2)CC1	876862-298-R-J1-PDC complex spheroids, viability % test/control	%	0.22
CC(CO)NC(=O)c1cc(-c2ccc(Cl)cc2)nn(-c2cnn(C)c2)c1=O (stereo not given) + CNC(=O)c1ccc(Nc2nc(OC3CCCC3)c3c(-c4ccc5nc(C)oc5c4)c[nH]c3n2)c(OC)c1	876862-298-R-J1-PDC complex spheroids, viability % test/control	%	30
CCCS(=O)(=O)Nc1ccc(F)c(C(=O)c2c[nH]c3ncc(-c4ccc(Cl)cc4)cc23)c1F + CN1CCN(c2cc(C(=O)Nc3cc4cc(-c5cnn(C)c5)ccc4cn3)ccn2)CC1	876862-298-R-J1-PDC complex spheroids, viability % test/control	%	3.28

src = PubChem BioAssay AID2060607
